test: Solubility in organic solvents; type: physicochemical; conditions: toluene, organic solvent or mixture; read-out: Solubility in Toluene
property.label: solubility

Lookup result for CC(C)(C)c1ccc(C(C)(C)C)c(N2C(=O)c3ccc4c5c(ccc(c35)C2=O)C(=O)N(CP(=O)(O)O)C4=O)c1 [Compound V1264] ; measured solubility: ≤ 800 µg/mL

###

assay: Cyclic voltammetry and optical band gap: energy levels in DMF and DCM solution; assay type: physicochemical; conditions: calculated from E vs Fc/Fc^+ with conversion factors
property.label: ELUMO (eV)
Give the quantity in eV, number only.

- test.smiles: "CC(C)(C)c1ccc(C(C)(C)C)c(N2C(=O)c3ccc4c5c(ccc(c35)C2=O)C(=O)N(CP(=O)(O)O)C4=O)c1"
  ELUMO, eV: "−3.81"
- test.smiles: "CC(C)(C)c1ccc(C(C)(C)C)c(N2C(=O)c3ccc4c5c(ccc(c35)C2=O)C(=O)N(CCP(=O)(O)O)C4=O)c1"
  ELUMO, eV: "−3.96"
- test.smiles: "O=C1c2ccc3c4c(ccc(c24)C(=O)N1CP(=O)(O)O)C(=O)N(CP(=O)(O)O)C3=O"
  ELUMO, eV: "−3.9"

Then there is this compound:
Lookup result for CC(C)(C)c1ccc(C(C)(C)C)c(N2C(=O)c3ccc4c5c(ccc(c35)C2=O)C(=O)N(c2ccc(P(=O)(O)O)cc2)C4=O)c1 ; measured ELUMO: −3.84

###

experiment: Solubility in organic solvents; format: physicochemical; conditions: chlorobenzene, organic solvent or mixture; read-out: Solubility in Chlorobenzene
property.label: solubility

Lookup result for CC(C)(C)c1ccc(C(C)(C)C)c(N2C(=O)c3ccc4c5c(ccc(c35)C2=O)C(=O)N(CP(=O)(O)O)C4=O)c1 ; measured solubility: ≤ 13 mg/mL

###

assay: Solubility in organic solvents; assay type: physicochemical; details: organic solvent or mixture; methanol, sonicated; read-out: Solubility in Methanol
property.label: solubility

Lookup result for O=C1c2ccc3c4c(ccc(c24)C(=O)N1CP(=O)(O)O)C(=O)N(CP(=O)(O)O)C3=O [Compound V1612] ; measured solubility: ≤ 500 µg/mL

###

assay: Solubility in organic solvents; assay type: physicochemical; conditions: DCM, organic solvent or mixture; read-out: Solubility in DCM
property.label: solubility

These recorded examples may help you get a feel for the data.
- test.smiles: "CC(C)(C)c1ccc(C(C)(C)C)c(N2C(=O)c3ccc4c5c(ccc(c35)C2=O)C(=O)N(c2ccc(P(=O)(O)O)cc2)C4=O)c1"
  solubility: "≤ 10000 µg/mL"
- test.smiles: "CC(C)(C)c1ccc(C(C)(C)C)c(N2C(=O)c3ccc4c5c(ccc(c35)C2=O)C(=O)N(CP(=O)(O)O)C4=O)c1"
  solubility: "≤ 15000 µg/mL"

Then there is this molecule:
Lookup result for CC(C)(C)c1ccc(C(C)(C)C)c(N2C(=O)c3ccc4c5c(ccc(c35)C2=O)C(=O)N(CCP(=O)(O)O)C4=O)c1 ; measured solubility: ≤ 7000 µg/mL

###

Consider the following compounds and their measured λ readings.
test: Cyclic voltammetry and optical band gap: energy levels in DMF and DCM solution; type: physicochemical; details: edge of electronic absorption spectrum in solution
Give the quantity in nm, number only.

- test.smiles: "CC(C)(C)c1ccc(C(C)(C)C)c(N2C(=O)c3ccc4c5c(ccc(c35)C2=O)C(=O)N(c2ccc(P(=O)(O)O)cc2)C4=O)c1"
  result.unit: "nm"
  λ: 394
- test.smiles: "O=C1c2ccc3c4c(ccc(c24)C(=O)N1CP(=O)(O)O)C(=O)N(CP(=O)(O)O)C3=O"
  result.unit: "nm"
  λ: 403
- test.smiles: "CC(C)(C)c1ccc(C(C)(C)C)c(N2C(=O)c3ccc4c5c(ccc(c35)C2=O)C(=O)N(CCP(=O)(O)O)C4=O)c1"
  result.unit: "nm"
  λ: 393

Lookup result for CC(C)(C)c1ccc(C(C)(C)C)c(N2C(=O)c3ccc4c5c(ccc(c35)C2=O)C(=O)N(CP(=O)(O)O)C4=O)c1 ; measured λ: 392

###

Consider the following compounds and their measured E vs Fc/Fc^+ readings.
test: Cyclic voltammetry and optical band gap: energy levels in DMF and DCM solution; format: physicochemical; settings: glassy carbon electrode, 0.1 M tetrabutylammonium hexafluorophosphate, calibrated with ferrocene
Give the quantity in V, number only.

- compound: "CC(C)(C)c1ccc(C(C)(C)C)c(N2C(=O)c3ccc4c5c(ccc(c35)C2=O)C(=O)N(CCP(=O)(O)O)C4=O)c1 [Compound V1624]"
  result.unit: "V"
  E vs Fc/Fc^+: "−1.16"
- compound: "CC(C)(C)c1ccc(C(C)(C)C)c(N2C(=O)c3ccc4c5c(ccc(c35)C2=O)C(=O)N(c2ccc(P(=O)(O)O)cc2)C4=O)c1 [Compound V1635]"
  result.unit: "V"
  E vs Fc/Fc^+: "−1.28"
- compound: "CC(C)(C)c1ccc(C(C)(C)C)c(N2C(=O)c3ccc4c5c(ccc(c35)C2=O)C(=O)N(CP(=O)(O)O)C4=O)c1 [Compound V1264]"
  result.unit: "V"
  E vs Fc/Fc^+: "−1.34"

Then there is this compound:
Lookup result for O=C1c2ccc3c4c(ccc(c24)C(=O)N1CP(=O)(O)O)C(=O)N(CP(=O)(O)O)C3=O [Compound V1612] ; measured E vs Fc/Fc^+: −1.17

###

assay: Cyclic voltammetry and optical band gap: energy levels in DMF and DCM solution; format: physicochemical; conditions: EHOMO=ELUMO+Eg opt
Consider the following molecules and their measured EHOMO readings.
Give the quantity in eV, number only.

These recorded examples may help you get a feel for the data.
- molecule: "CC(C)(C)c1ccc(C(C)(C)C)c(N2C(=O)c3ccc4c5c(ccc(c35)C2=O)C(=O)N(c2ccc(P(=O)(O)O)cc2)C4=O)c1 [Compound V1635]"
  EHOMO / eV: "−6.98"
- molecule: "CC(C)(C)c1ccc(C(C)(C)C)c(N2C(=O)c3ccc4c5c(ccc(c35)C2=O)C(=O)N(CCP(=O)(O)O)C4=O)c1 [Compound V1624]"
  EHOMO / eV: "−7.11"

Lookup result for O=C1c2ccc3c4c(ccc(c24)C(=O)N1CP(=O)(O)O)C(=O)N(CP(=O)(O)O)C3=O [Compound V1612] ; measured EHOMO: −6.97

Lookup result for CC(C)(C)c1ccc(C(C)(C)C)c(N2C(=O)c3ccc4c5c(ccc(c35)C2=O)C(=O)N(CP(=O)(O)O)C4=O)c1 [Compound V1264] ; measured EHOMO: −6.97

###

assay: Cyclic voltammetry and optical band gap: energy levels in DMF and DCM solution; type: physicochemical; conditions: optical band gap, Eg opt=1240/λ
property.label: Eg^opt-sol

These recorded examples may help you get a feel for the data.
- test.smiles: "O=C1c2ccc3c4c(ccc(c24)C(=O)N1CP(=O)(O)O)C(=O)N(CP(=O)(O)O)C3=O"
  Eg^opt-sol: "3.07 eV"
- test.smiles: "CC(C)(C)c1ccc(C(C)(C)C)c(N2C(=O)c3ccc4c5c(ccc(c35)C2=O)C(=O)N(CP(=O)(O)O)C4=O)c1"
  Eg^opt-sol: "3.16 eV"

Lookup result for CC(C)(C)c1ccc(C(C)(C)C)c(N2C(=O)c3ccc4c5c(ccc(c35)C2=O)C(=O)N(CCP(=O)(O)O)C4=O)c1 ; measured Eg^opt-sol: 3.15 eV

Lookup result for CC(C)(C)c1ccc(C(C)(C)C)c(N2C(=O)c3ccc4c5c(ccc(c35)C2=O)C(=O)N(c2ccc(P(=O)(O)O)cc2)C4=O)c1 ; measured Eg^opt-sol: 3.14 eV

These data points were gathered from patent US20250241109A1.
